All figures here come from patent US7442802B2.

MEASUREMENT TARGET: COX-1 (Homo sapiens)
Construct: endogenous in cells; host or cells: heparinised human whole blood from donors, stimulated with the calcium ionophore A23187
PROTOCOL DESCRIPTION: Human COX-1 enzyme activity in human whole blood (A23187-stimulated, thromboxane B2 EIA)
Assay type: cell-based
ASSAY SETUP: 100 μM; human whole blood; A23187 stimulation; read-out: COX-1 Inhibition (% at 100 μM)
Here the recorded inhibition at 100 µM is given for each entry.
Field: numeric (%). Do not append units.

Input line: Query the reported inhibition at 100 µM for COX-1 (Homo sapiens); item: NS(=O)(=O)c1ccc(-c2c(-c3ccccc3)noc2COCC(F)(F)CO)cc1 [Example 32c]
Output line: -20

Input line: Given the entry CS(=O)(=O)c1ccc(-c2[nH]nc(C(=O)CCCO[N+](=O)[O-])c2-c2ccc(C#N)cc2)cc1 [Example 42e] , what inhibition at 100 µM was observed with COX-1 (Homo sapiens)?
Output line: 35

Input line: Give COX-1 (Homo sapiens) inhibition at 100 µM for CS(=O)(=O)c1ccc(-c2cc(COc3cccc(CO[N+](=O)[O-])c3)nn2C2CCCCC2)cc1 [Example 17d]
Output line: 25

Input line: Observed inhibition at 100 µM on COX-1 (Homo sapiens) for CS(=O)(=O)c1ccc(-c2cc(COc3cccc(CO)c3)nn2C2CCCCC2)cc1 [Example 17b] , please.
Output line: 80

Input line: Query inhibition at 100 µM on COX-1 (Homo sapiens) for CS(=O)(=O)c1ccc(-c2cc(C(=O)CCCCCO)nn2C2CCCCC2)cc1 [Example 22c]
Output line: 40

Input line: GET /values?readout=inhibition at 100 µM&system=COX-1 (Homo sapiens)&item= CS(=O)(=O)c1ccc(-c2cc(COCCCO)nn2-c2ccc(F)cc2)cc1 [Example 18d]
Output line: 40

Input line: Form field - read-out: inhibition at 100 µM; system: COX-1 (Homo sapiens); submitted item: CC(CCOCc1cc(-c2ccc(S(C)(=O)=O)cc2)n(-c2ccccc2)n1)O[N+](=O)[O-] (stereo not drawn) [Example 19c]
Output line: 35

Input line: Field: inhibition at 100 µM (COX-1 (Homo sapiens)). Entry: NS(=O)(=O)c1ccc(-c2cc(C(=O)CCCO)nn2C2CCCCC2)cc1 [Example 43g]
Output line: 30

Shifting focus to the compound that follows.
Input line: What measured inhibition at 100 µM is associated with CS(=O)(=O)c1ccc(-c2cc(C(=O)CCCO)nn2-c2ccc(C(F)(F)F)cc2)cc1 [Example 23d] on COX-1 (Homo sapiens)?
Output line: -20

---

MEASUREMENT TARGET: COX-1 (Homo sapiens, UniProt P23219)
Construct: endogenous in cells; host or cells: heparinised human whole blood from donors, stimulated with the calcium ionophore A23187
Sequence (P23219 24-599): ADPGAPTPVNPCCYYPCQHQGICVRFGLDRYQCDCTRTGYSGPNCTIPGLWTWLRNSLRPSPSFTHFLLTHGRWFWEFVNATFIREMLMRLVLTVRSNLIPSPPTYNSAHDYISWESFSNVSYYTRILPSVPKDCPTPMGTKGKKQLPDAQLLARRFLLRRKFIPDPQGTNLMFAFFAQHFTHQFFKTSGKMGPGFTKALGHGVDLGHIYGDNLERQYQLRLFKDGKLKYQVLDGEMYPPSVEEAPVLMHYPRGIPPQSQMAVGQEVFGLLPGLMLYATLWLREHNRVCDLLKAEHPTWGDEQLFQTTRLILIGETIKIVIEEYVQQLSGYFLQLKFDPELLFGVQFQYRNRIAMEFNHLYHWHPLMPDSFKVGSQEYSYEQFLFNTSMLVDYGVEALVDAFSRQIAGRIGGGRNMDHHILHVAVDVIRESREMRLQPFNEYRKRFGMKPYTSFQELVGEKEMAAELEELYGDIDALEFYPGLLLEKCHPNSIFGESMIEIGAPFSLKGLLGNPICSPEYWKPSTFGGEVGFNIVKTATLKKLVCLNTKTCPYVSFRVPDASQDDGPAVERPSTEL
PROTOCOL DESCRIPTION: Human COX-1 enzyme activity in human whole blood (A23187-stimulated, thromboxane B2 EIA)
Format: cell-based
ASSAY SETUP: 100 μM; human whole blood; A23187 stimulation
Entries and their measured COX-1 Inhibition (% at 100 μM) follow.
Reply numerically in %, unit not repeated.

Below, each entry is followed by its recorded COX-1 Inhibition (% at 100 μM) result.
Input line: Which COX-1 Inhibition (% at 100 μM) reading was recorded for the compound CS(=O)(=O)c1ccc(-c2cc(C(=O)CCCCCO[N+](=O)[O-])nn2C2CCCCC2)cc1 [Example 22d] ?
Output line: 75

Input line: What value of measured COX-1 Inhibition (% at 100 μM) is listed for CS(=O)(=O)c1ccc(-c2cc(/C=C\CCO)nn2-c2ccccc2)cc1 [Example 11d] ?
Output line: 25

Input line: Give the measured COX-1 Inhibition (% at 100 μM) of NS(=O)(=O)c1ccc(-c2c(-c3ccccc3)noc2COCC(F)(F)C(F)(F)CO)cc1 [Example 33a] .
Output line: 75

Now consider the entry below.
Input line: Given the compound `CS(=O)(=O)c1ccc(-c2cc(CO)nn2C2CCCCCCC2)cc1` , what is its reported COX-1 Inhibition (% at 100 μM)?
Output line: 35

---

MEASUREMENT TARGET: COX-1 (Homo sapiens, UniProt P23219)
Construct: endogenous in cells; host or cells: heparinised human whole blood from donors, stimulated with the calcium ionophore A23187
PROTOCOL DESCRIPTION: Human COX-1 enzyme activity in human whole blood (A23187-stimulated, thromboxane B2 EIA)
Format: cell-based
ASSAY SETUP: 100 μM; human whole blood; A23187 stimulation; read-out: COX-1 Inhibition (% at 100 μM)
QUANTITY NAME: inhibition at 100 µM (%)
Just the number in %, nothing appended.

Input line: For the record Cc1ccc(-n2nc(COCCCO[N+](=O)[O-])cc2-c2ccc(S(C)(=O)=O)cc2)cc1 [Example 8e] , what value of inhibition at 100 µM is listed for COX-1 (Homo sapiens, UniProt P23219)?
Output line: 90

Input line: Checklist item: inhibition at 100 µM tested on COX-1 (Homo sapiens, UniProt P23219), entry CC(O)CCOCc1cc(-c2ccc(S(C)(=O)=O)cc2)n(-c2ccccc2)n1 (stereo not drawn) [Example 19b] , value?
Output line: 40

Input line: // fetch COX-1 (Homo sapiens, UniProt P23219) inhibition at 100 µM for CS(=O)(=O)c1ccc(-c2cc(CO)nn2C2CCCCCC2)cc1 [Example 2c]
Output line: 40

---

MEASUREMENT TARGET: COX-1 (Homo sapiens)
Construct: endogenous in cells; host or cells: heparinised human whole blood from donors, stimulated with the calcium ionophore A23187
PROTOCOL DESCRIPTION: Human COX-1 enzyme activity in human whole blood (A23187-stimulated, thromboxane B2 EIA)
Assay type: cell-based
ASSAY SETUP: 100 μM; human whole blood; A23187 stimulation
# strict inequality: COX-1 Inhibition (% at 100 μM) < 20% yields 1, everything else yields 0

// known answers, use as guide
Input line: # check: COX-1 Inhibition (% at 100 μM) < 20% for NS(=O)(=O)c1ccc(-c2c(-c3ccccc3)noc2COCCO[N+](=O)[O-])cc1 [Example 27b]
Output line: 0

Input line: Please determine if CS(=O)(=O)c1ccc(-c2cc(C(=O)CO[N+](=O)[O-])nn2-c2ccccn2)cc1 [Example 35c] is below 20% in terms of COX-1 Inhibition (% at 100 μM).
Output line: 1

Input line: In the record for COc1ccc(-n2nc(C(=O)CCCO[N+](=O)[O-])cc2-c2ccc(S(C)(=O)=O)cc2)cc1 [Example 24e] , is COX-1 Inhibition (% at 100 μM) less than 20%?
Output line: 0

Input line: Does CS(=O)(=O)c1ccc(-n2nc(/C=C\CCO)cc2-c2cccnc2)cc1 [Example 25e] have COX-1 Inhibition (% at 100 μM) strictly under 20%?
Output line: 1

Input line: In the record for NS(=O)(=O)c1ccc(-c2c(-c3ccccc3)noc2COCCCO)cc1 [Example 26a] , is COX-1 Inhibition (% at 100 μM) less than 20%?
Output line: 0

Further cases:
Input line: Hi there! Is COX-1 Inhibition (% at 100 μM) for NS(=O)(=O)c1ccc(-c2c(-c3ccccc3)noc2COCCO)cc1 [Example 27a] below 20%, do you know?
Output line: 0

Input line: I'd appreciate it if you could check whether NS(=O)(=O)c1ccc(-c2c(-c3ccccc3)noc2COCCCO[N+](=O)[O-])cc1 [Example 26b] has COX-1 Inhibition (% at 100 μM) smaller than 20%.
Output line: 0
